Target: SOST; further: test concentration or dose not given here
Assay: reporter assay of Huesken 2005
Conditions: siRNA
Oligonucleotides are given in HELM: sugar(base)linkage, 5' to 3'; d 2'-deoxyribose, r ribose, m 2'-O-methylribose, p phosphate. ss, as = sense and antisense strand
reported.endpoint: normalised inhibition (eCFP-eYFP dual reporter) (%)

{"columns": ["substance", "assay.system", "unit.descriptor", "numeric.result"],
 "data": [
  ["RNA1{r(U)p.r(C)p.r(G)p.r(G)p.r(A)p.r(G)p.r(C)p.r(U)p.r(C)p.r(A)p.r(A)p.r(G)p.r(G)p.r(A)p.r(C)p.r(U)p.r(U)p.r(C)p.r(G)p.d(T)p.d(T)}|RNA2{r(C)p.r(G)p.r(A)p.r(A)p.r(G)p.r(U)p.r(C)p.r(C)p.r(U)p.r(U)p.r(G)p.r(A)p.r(G)p.r(C)p.r(U)p.r(C)p.r(C)p.r(G)p.r(A)p.d(C)p.d(T)}$$$RNA1{StrandType:ss}|RNA2{StrandType:as}$", "SOST", "%", 61.8],
  ["RNA1{r(C)p.r(A)p.r(U)p.r(C)p.r(C)p.r(C)p.r(C)p.r(G)p.r(A)p.r(G)p.r(C)p.r(U)p.r(C)p.r(G)p.r(G)p.r(A)p.r(G)p.r(A)p.r(G)p.d(T)p.d(T)}|RNA2{r(C)p.r(U)p.r(C)p.r(U)p.r(C)p.r(C)p.r(G)p.r(A)p.r(G)p.r(C)p.r(U)p.r(C)p.r(G)p.r(G)p.r(G)p.r(G)p.r(A)p.r(U)p.r(G)p.d(A)p.d(T)}$$$RNA1{StrandType:ss}|RNA2{StrandType:as}$", "SOST", "%", 50.9],
  ["RNA1{r(C)p.r(G)p.r(C)p.r(C)p.r(A)p.r(A)p.r(G)p.r(C)p.r(C)p.r(G)p.r(G)p.r(U)p.r(C)p.r(A)p.r(C)p.r(C)p.r(G)p.r(A)p.r(G)p.d(T)p.d(T)}|RNA2{r(C)p.r(U)p.r(C)p.r(G)p.r(G)p.r(U)p.r(G)p.r(A)p.r(C)p.r(C)p.r(G)p.r(G)p.r(C)p.r(U)p.r(U)p.r(G)p.r(G)p.r(C)p.r(G)p.d(C)p.d(T)}$$$RNA1{StrandType:ss}|RNA2{StrandType:as}$", "SOST", "%", 59.1],
  ["RNA1{r(G)p.r(C)p.r(G)p.r(C)p.r(G)p.r(C)p.r(A)p.r(A)p.r(G)p.r(G)p.r(U)p.r(G)p.r(C)p.r(G)p.r(C)p.r(C)p.r(U)p.r(G)p.r(G)p.d(T)p.d(T)}|RNA2{r(C)p.r(C)p.r(A)p.r(G)p.r(G)p.r(C)p.r(G)p.r(C)p.r(A)p.r(C)p.r(C)p.r(U)p.r(U)p.r(G)p.r(C)p.r(G)p.r(C)p.r(G)p.r(C)p.d(G)p.d(C)}$$$RNA1{StrandType:ss}|RNA2{StrandType:as}$", "SOST", "%", 41.3],
  ["RNA1{r(G)p.r(G)p.r(G)p.r(G)p.r(U)p.r(G)p.r(G)p.r(C)p.r(A)p.r(G)p.r(G)p.r(C)p.r(G)p.r(U)p.r(U)p.r(C)p.r(A)p.r(A)p.r(G)p.d(T)p.d(T)}|RNA2{r(C)p.r(U)p.r(U)p.r(G)p.r(A)p.r(A)p.r(C)p.r(G)p.r(C)p.r(C)p.r(U)p.r(G)p.r(C)p.r(C)p.r(A)p.r(C)p.r(C)p.r(C)p.r(C)p.d(T)p.d(G)}$$$RNA1{StrandType:ss}|RNA2{StrandType:as}$", "SOST", "%", 48.7]
]}
